Test system: S. aureus RN450
run_description: In vitro minimum inhibitory concentration (MIC) assay, S. aureus
Format: cell-based
Parameters: key: Compounds which showed superior inhibition of S. aureus, S. pseumoniae and E. coli are indicated by “***,”; compounds which showed very good or good inhibition of S. aureus, S. pseumoniae and E. coli are indicated by “**” or “*” respectively; compounds which showed very good or good inhibition of S. aureus, S. pseumoniae and E. coli are indicated by “**” or “*” respectively
particulars: broth microdilution in CAMHB, 35° C., approximately 18 hour
readout_type: Median MIC for S. aureus RN450

Completed entries (count: 5):
smiles_code=CCONC(=O)c1cc(N(C)C)c2c(c1O)C(=O)C1=C(O)[C@]3(O)C(=O)C(C(N)=O)=C(O)[C@@H](N(C)C)[C@@H]3C[C@@H]1C2 result=*
smiles_code=CN(C)c1cc(-c2cn[nH]c2)c(O)c2c1C[C@H]1C[C@H]3[C@H](N(C)C)C(O)=C(C(N)=O)C(=O)[C@@]3(O)C(O)=C1C2=O result=*
smiles_code=CN(C)c1cc(-c2nccs2)c(O)c2c1C[C@H]1C[C@H]3[C@H](N(C)C)C(O)=C(C(N)=O)C(=O)[C@@]3(O)C(O)=C1C2=O result=***
smiles_code=CN(C)c1cc(C(=O)NC(C)(C)C)c(O)c2c1C[C@H]1C[C@H]3[C@H](N(C)C)C(O)=C(C(N)=O)C(=O)[C@@]3(O)C(O)=C1C2=O result=**
smiles_code=COCC#Cc1cc(N(C)C)c2c(c1O)C(=O)C1=C(O)[C@]3(O)C(=O)C(C(N)=O)=C(O)[C@@H](N(C)C)[C@@H]3C[C@@H]1C2 result=***

The compound identified as CC(=O)Nc1ccc(-c2cc(N(C)C)c3c(c2O)C(=O)C2=C(O)[C@]4(O)C(=O)C(C(N)=O)=C(O)[C@@H](N(C)C)[C@@H]4C[C@@H]2C3)cn1 registered its Median MIC for S. aureus RN450 at ***

###

Tested on: S. pneumoniae 157E
run_description: In vitro minimum inhibitory concentration (MIC) assay, S. pneumoniae
Type: cell-based
Design: key: Compounds which showed superior inhibition of S. aureus, S. pseumoniae and E. coli are indicated by “***,”; compounds which showed very good or good inhibition of S. aureus, S. pseumoniae and E. coli are indicated by “**” or “*” respectively; compounds which showed very good or good inhibition of S. aureus, S. pseumoniae and E. coli are indicated by “**” or “*” respectively
particulars: broth microdilution in CAMHB, 35° C., approximately 18 hour
Experimental: The following assay is used to determine the efficacy of the tetracycline compounds against common bacteria. 2 mg of each compound is dissolved in 100 μl of DMSO. The solution is then added to cation-adjusted Mueller Hinton broth (CAMHB), which results in a final compound concentration of 200 μg per ml. […] 50 μl of the cell suspensions are added to each well of microtiter plates. […] The plates are read with a microplate reader and are visually inspected when necessary. […]
readout_type: Median MIC for S. pneumoniae 157E

smiles_code=CN(C)c1cc(C(N)=O)c(O)c2c1C[C@H]1C[C@H]3[C@H](N(C)C)C(O)=C(C(N)=O)C(=O)[C@@]3(O)C(O)=C1C2=O result=*
smiles_code=CN(C)c1cc(C(=O)NOC(C)(C)C)c(O)c2c1C[C@H]1C[C@H]3[C@H](N(C)C)C(O)=C(C(N)=O)C(=O)[C@@]3(O)C(O)=C1C2=O result=*
smiles_code=CN(C)c1cc(C#CC(=O)O)c(O)c2c1C[C@H]1C[C@H]3[C@@H](N(C)C)C(O)=C(C(N)=O)C(=O)[C@@]3(O)C(O)=C1C2=O result=*

###

Tested on: S. aureus RN450
run_description: In vitro minimum inhibitory concentration (MIC) assay, S. aureus
Type: cell-based
Set-up: key: Compounds which showed superior inhibition of S. aureus, S. pseumoniae and E. coli are indicated by “***,”; compounds which showed very good or good inhibition of S. aureus, S. pseumoniae and E. coli are indicated by “**” or “*” respectively; compounds which showed very good or good inhibition of S. aureus, S. pseumoniae and E. coli are indicated by “**” or “*” respectively
particulars: broth microdilution in CAMHB, 35° C., approximately 18 hour
readout_type: Median MIC for S. aureus RN450

Completed entries (count: 5):
smiles_code=CN(C)c1cc(-c2cnoc2)c(O)c2c1C[C@H]1C[C@H]3[C@H](N(C)C)C(O)=C(C(N)=O)C(=O)[C@@]3(O)C(O)=C1C2=O result=***
smiles_code=CN(C)c1cc(C(=O)NCCO)c(O)c2c1C[C@H]1C[C@H]3[C@H](N(C)C)C(O)=C(C(N)=O)C(=O)[C@@]3(O)C(O)=C1C2=O result=*
smiles_code=CN(C)c1cc(C(=O)NOC(C)(C)C)c(O)c2c1C[C@H]1C[C@H]3[C@H](N(C)C)C(O)=C(C(N)=O)C(=O)[C@@]3(O)C(O)=C1C2=O result=*
smiles_code=CC(=O)c1cc(N(C)C)c2c(c1O)C(=O)C1=C(O)[C@]3(O)C(=O)C(C(N)=O)=C(O)[C@H](N(C)C)[C@@H]3C[C@@H]1C2 result=*
smiles_code=CN(C)c1cc(-c2cccc(C(N)=O)c2)c(O)c2c1C[C@H]1C[C@H]3[C@H](N(C)C)C(O)=C(C(N)=O)C(=O)[C@@]3(O)C(O)=C1C2=O result=***

Switching to the query record.
The compound identified as CN(C)c1cc(-c2ccc(C#N)nc2)c(O)c2c1C[C@H]1C[C@H]3[C@H](N(C)C)C(O)=C(C(N)=O)C(=O)[C@@]3(O)C(O)=C1C2=O registered its Median MIC for S. aureus RN450 at ***

###

Tested on: S. aureus RN450
run_description: In vitro minimum inhibitory concentration (MIC) assay, S. aureus
Format: cell-based
Parameters: key: Compounds which showed superior inhibition of S. aureus, S. pseumoniae and E. coli are indicated by “***,”; compounds which showed very good or good inhibition of S. aureus, S. pseumoniae and E. coli are indicated by “**” or “*” respectively; compounds which showed very good or good inhibition of S. aureus, S. pseumoniae and E. coli are indicated by “**” or “*” respectively
particulars: broth microdilution in CAMHB, 35° C., approximately 18 hour
readout_type: Median MIC for S. aureus RN450

smiles_code=CCCN(CC)C(=O)c1cc(N(C)C)c2c(c1O)C(=O)C1=C(O)[C@]3(O)C(=O)C(C(N)=O)=C(O)[C@@H](N(C)C)[C@@H]3C[C@@H]1C2 readout_type="Median MIC for S. aureus RN450" result=*
smiles_code=CN(C)c1cc(-c2ncco2)c(O)c2c1C[C@H]1C[C@H]3[C@H](N(C)C)C(O)=C(C(N)=O)C(=O)[C@@]3(O)C(O)=C1C2=O readout_type="Median MIC for S. aureus RN450" result=**
smiles_code=CONC(=O)c1cc(N(C)C)c2c(c1O)C(=O)C1=C(O)[C@]3(O)C(=O)C(C(N)=O)=C(O)[C@@H](N(C)C)[C@@H]3C[C@@H]1C2 readout_type="Median MIC for S. aureus RN450" result=*
smiles_code=CCC(=O)c1cc(N(C)C)c2c(c1O)C(=O)C1=C(O)[C@]3(O)C(=O)C(C(N)=O)=C(O)[C@@H](N(C)C)[C@@H]3C[C@@H]1C2 readout_type="Median MIC for S. aureus RN450" result=***
smiles_code=CN(C)c1cc(C(=O)N2CCCC2)c(O)c2c1C[C@H]1C[C@H]3[C@H](N(C)C)C(O)=C(C(N)=O)C(=O)[C@@]3(O)C(O)=C1C2=O readout_type="Median MIC for S. aureus RN450" result=*
smiles_code=CC(=O)NCCNC(=O)c1cc(N(C)C)c2c(c1O)C(=O)C1=C(O)[C@]3(O)C(=O)C(C(N)=O)=C(O)[C@@H](N(C)C)[C@@H]3C[C@@H]1C2 readout_type="Median MIC for S. aureus RN450" result=*
smiles_code=CN(C)c1cc(-c2ncccn2)c(O)c2c1C[C@H]1C[C@H]3[C@H](N(C)C)C(O)=C(C(N)=O)C(=O)[C@@]3(O)C(O)=C1C2=O readout_type="Median MIC for S. aureus RN450" result=***
smiles_code=CN(C)c1cc(-c2cncnc2)c(O)c2c1C[C@H]1C[C@H]3[C@H](N(C)C)C(O)=C(C(N)=O)C(=O)[C@@]3(O)C(O)=C1C2=O readout_type="Median MIC for S. aureus RN450" result=***

The compound identified as CN(C)c1cc(C(=O)NCC(C)(C)C)c(O)c2c1C[C@H]1C[C@H]3[C@H](N(C)C)C(O)=C(C(N)=O)C(=O)[C@@]3(O)C(O)=C1C2=O registered its Median MIC for S. aureus RN450 at ***

The compound identified as CN(C)c1cc(C(=O)N2CCCCC2)c(O)c2c1C[C@H]1C[C@H]3[C@H](N(C)C)C(O)=C(C(N)=O)C(=O)[C@@]3(O)C(O)=C1C2=O registered its Median MIC for S. aureus RN450 at *

The compound identified as CN(C)c1ccc(-c2cc(N(C)C)c3c(c2O)C(=O)C2=C(O)[C@]4(O)C(=O)C(C(N)=O)=C(O)[C@@H](N(C)C)[C@@H]4C[C@@H]2C3)cc1 registered its Median MIC for S. aureus RN450 at ***

The compound identified as COCCN(C)C(=O)c1cc(N(C)C)c2c(c1O)C(=O)C1=C(O)[C@]3(O)C(=O)C(C(N)=O)=C(O)[C@@H](N(C)C)[C@@H]3C[C@@H]1C2 registered its Median MIC for S. aureus RN450 at *
